Experimental details: NCI Yeast Anticancer Drug Screen. Data for the sgs1 mgt1 strain (AID 161);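 note: 0% = growth of cultures given vehicle only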
Experimental context: S. cerevisiae sgs1 mgt1 strain, at 5.0 µM (retest, dose inferred, filed as 0.5)
This is part of a sample that, as a whole, favours compounds with a hit. Of some 79,000 tested, about 15% had one in any assay. The source made the active and inactive calls. Cut-off read from the data, not from the text of the source: active = growth inhibition above about 70%; inactive = the rest.
In this exercise, the only acceptable responses are active, inactive

Use these answered entries as a reference point.
Compound: O=C(NNc1ccccc1)C(O)C(O)C(O)C(O)C(O)C(O)C(O)CO (stereo unspecified)
Class name: inactive
--
Compound: CCCCCCCCCCOC(=O)c1ccccn1
Class name: inactive
--
Compound: Clc1ccccc1C=Nc1cccc2ccccc12
Class name: inactive
--
Compound: Cc1cc(Nc2ccc(O)c(CN3CCN(Cc4cc(Nc5cc(C)nc(N)n5)ccc4O)CC3)c2)nc(N)n1
Class name: inactive
--
Compound: COc1cc(NCc2ccc3nc(-c4ccccc4)c(N)nc3c2)cc(OC)c1OC
Class name: inactive

Then this compound:
Please share the test call associated with `N#CSc1ccc(Nc2ccc(SC#N)cc2)cc1` .
active

----------
Experimental details: NCI Yeast Anticancer Drug Screen. Data for the bub3 strain (AID 167)
Experimental context: S. cerevisiae bub3 mutant strain, at 50.0 µM (retest, dose inferred, filed as 5.0), active compounds read high
Compounds without any hit were thinned out: in the full panel of roughly 79,000, 15% have a hit.
Please enter criterion met where growth inhibition is greater than or equal to 60%, and criterion not met where it is lower.

Compound: CC(=O)N1c2ccccc2Sc2c1ccc1ccccc21
Class name: criterion met

Please tell me: is the compound `O=C(O)CCC(=O)c1ccc2c(c1)CCCC2` at or over 60% in terms of growth inhibition?
criterion not met

Now the compound `CCN(CC)CCCNc1c2c(Cl)cc(Cl)cc2nc2nc(=O)[nH]c(C)c12`
criterion not met

Now the compound CCCCC(CC)C(O)C(=O)O (stereo not given)
criterion not met

----------
Experimental details: NCI Yeast Anticancer Drug Screen. Data for the bub3 strain (AID 167)
Experimental context: S. cerevisiae bub3 mutant strain, at 50.0 µM
The panel holds about 79,000 compounds, 15% with a hit somewhere; the sample as a whole holds those more often. Calls of active or inactive are those of the source. No stated cut-off is given here; in the data, active means growth inhibition above about 70%; inactive means the rest.
In this exercise, the only acceptable responses are active, inactive

Use these answered entries as a reference point.
Compound: CC(=O)OC1C2C3C(C=CC2[C@H]1OC(C)=O)C1C3C=CC2C1C(OC(C)=O)[C@@H]2OC(C)=O (stereo partly specified)
Class name: inactive
--
Compound: CN(C)CCCSc1c2ccccc2nc2cc(NCC(=O)Nc3ccccc3-c3ccccc3NC(=O)CNc3ccc4c(SCCCN(C)C)c5ccccc5nc4c3)ccc12
Class name: active
--
Compound: CN(C)C=NCCNc1ccc([N+](=O)[O-])cn1
Class name: inactive
--
Compound: CN(C)c1ccc(SC(=S)NCc2ccccc2)cc1
Class name: active
--
Compound: O=C1CSC(Cc2nc3ccccc3[nH]2)=N1
Class name: active
--
Compound: COc1ccc(CN2COc3c(cc(C)c4cccnc34)C2)cc1
Class name: inactive

Please share the test call associated with `C1CCC(CCCCc2nn[nH]n2)CC1` .
active

Now the compound `CCN(C(C)=O)c1ccc2c(c1)Cc1ccccc1-2`
active

Now the compound `CC(C)C1(C)C(C#N)(C#N)C1(C#N)C#N`
active

Now the compound `Cc1ccc2[nH]c3c(c2c1)CCC/C3=N/N=C(N)N`
active

Now the compound `CCc1cccc(C)c1NC(=O)C(=O)CC(=O)c1ccccc1Cl`
inactive

----------
Experimental details: NCI Yeast Anticancer Drug Screen. Data for the sgs1 mgt1 strain (AID 161);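 note: 0% = growth of cultures given vehicle only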
Experimental context: S. cerevisiae sgs1 mgt1 strain, at 50.0 µM, active compounds read high
This is part of a sample that, as a whole, favours compounds with a hit. Of some 79,000 tested, about 15% had one in any assay.
Reported growth inhibition by item:
# unit: % | format: bare number

Compound: Oc1c(Cl)c(Cl)c(O)c2c1CCCC2
Observed: 99.2
//
Compound: COc1ccc(CN2CCCN(Cc3ccc(OC)cc3OC)C2c2cc(Br)ccc2O)c(OC)c1
Observed: 99.2
//
Compound: O=C(O)c1cc2c3ccccc3sc2c2ccccc12
Observed: 15.1
//
Compound: CC(=O)N1OC2(C)c3ccccc3C1(C)c1ccccc12
Observed: 97.9
//
Compound: CCOc1ccccc1NC(=O)/C(Cl)=C(\Cl)C(=O)O
Observed: 95.2

Fill blank: measured growth inhibition of the compound `Nc1ccc2c(c1)S(=O)(=O)c1cc(N)ccc1-2` is ____.
-29

Now the compound `C=CCNC(=S)N/N=C(\CCC)c1ccccn1`
99.6

Now the compound O=C(OC1C=C=CS(=O)(=O)CC#C/C=C\1)c1cnc2ccccc2n1 (stereo not drawn)
74.3

Now the compound COC(=O)C(Sc1ccc(Cl)cc1)C1SC(=S)N(C)C1=O (stereo not drawn)
65.9

Now the compound `O=C1c2ccccc2C(=O)c2cc(S(=O)(=O)Cl)ccc21`
69.2

----------
Experimental details: NCI Yeast Anticancer Drug Screen. Data for the mec2-1 strain (AID 157)
Experimental context: S. cerevisiae mec2-1 strain, at 5.0 µM (retest, dose inferred, filed as 0.5)
Compounds without any hit were thinned out: in the full panel of roughly 79,000, 15% have a hit. Activity calls are given as the source filed them. No stated cut-off is given here; in the data, active means growth inhibition above about 70%; inactive means the rest.
In this exercise, the only acceptable responses are Yes = active, No = inactive

Use these answered entries as a reference point.
Compound: O=C1Oc2cc3c(c4cccc1c24)OCN(c1ccccc1)C3
Class name: No
--
Compound: COc1ccc(/C(Cl)=C(\c2ccc(OCCN(C)C)cc2)c2ccc(OC(=O)C(C)(C)C)cc2)cc1
Class name: No

Please share the test call associated with CC(=O)C1(O)C(Br)CC2C3CC=C4CC(O)CCC4(C)C3CCC21C (stereo not drawn) .
No

Now the compound CC1(C)CC(=O)C2=C(C1)OC1=C(C(=O)CC(C)(C)C1)C2CC(c1ccccc1)c1ccc(O)c(O)c1O (stereo not drawn)
No

Now the compound `CCN(CC)c1ccc(N=Nc2ccc(-c3nc4ccc[n+](C)c4s3)cc2)cc1`
Yes

Now the compound CCC(c1ccc(OC)cc1)C(CC)c1ccc(O)c(CN(C)C)c1 (stereo not drawn)
No

Now the compound `Cn1c(=S)sc2nc3ccccc3n2c1=S`
No

Now the compound `Cc1c2c(c(C)c3c1OC(C)(C)CC3)OC(C)(C)CC2`
No

----------
Experimental details: NCI Yeast Anticancer Drug Screen. Data for the mlh1 rad18 strain (AID 175)
Experimental context: S. cerevisiae mlh1 rad18 strain growth inhibition; at 50.0 µM; active compounds read high
About 79,000 compounds went through this panel and 15% of them were active in at least one assay; those are over-represented in the sample as a whole.
Readout type: growth inhibition (%)
# unit: % | format: bare number

Recorded growth inhibition, per entry:
Compound: O=C(c1ccc(OCC(O)CN2CCN(c3ccccc3)CC2)cc1)c1cc2ccccc2c2ccccc12 (stereo unspecified)
growth inhibition [%]: 96.2
--
Compound: CCn1c2ccccc2c2ccc(C3C(C(=O)OC)=C(C)NC(C)=C3C(=O)OC)cc21
growth inhibition [%]: 85
--
Compound: O=C(Oc1cc([N+](=O)[O-])ccc1Cl)Oc1cc([N+](=O)[O-])ccc1Cl
growth inhibition [%]: 98.6
--
Compound: COc1ccc(C(=O)C2C(=O)C(=O)OC2C2OC(=O)C(=O)C2C(=O)c2ccc(OC)cc2)cc1 (stereo unspecified)
growth inhibition [%]: -15.7
--
Compound: COc1cc(CC#N)c(NC(C)=O)cc1OC
growth inhibition [%]: 9.1
--
Compound: COc1cc2c(cc1OC(C)=O)C(=O)C(Br)(Br)CCC2
growth inhibition [%]: 98.5

Fill blank: measured growth inhibition of the compound `CCOC(=O)C(C(=O)OCC)c1ccc([N+](=O)[O-])o1` is ____.
82.2

Now the compound `Cc1cccc(C)c1O`
99.5

Now the compound `CC(C)SC(=S)Nc1cc(Cl)c(Cl)cc1Cl`
99.3

Now the compound `CCCCCN(C(=O)CCl)c1ccccc1`
67.6

Now the compound `COC(=O)c1c(C(N)=O)c(C)n(NC(=O)Nc2ccccc2)c1C`
87.8

----------
Experimental details: NCI Yeast Anticancer Drug Screen. Data for the bub3 strain (AID 167)
Experimental context: S. cerevisiae bub3 mutant strain, at 5.0 µM (retest, dose inferred, filed as 0.5)
The panel holds about 79,000 compounds, 15% with a hit somewhere; the sample as a whole holds those more often. Active and inactive are the calls of the source. Rule as the data show it: active = growth inhibition above about 70%; inactive = the rest.
In this exercise, the only acceptable responses are yes (1) for active, no (0) for inactive

Please share the test call associated with `O=C(CNc1ccccc1[N+](=O)[O-])Nn1c(-c2ccccc2)nc2ccccc2c1=O` .
no (0)

----------
Reported growth inhibition by item:
Experimental details: NCI Yeast Anticancer Drug Screen. Data for the mlh1 rad18 strain (AID 175)
Experimental context: S. cerevisiae mlh1 rad18 strain growth inhibition; at 50.0 µM (retest, dose inferred, filed as 5.0); active compounds read high
The panel holds about 79,000 compounds, 15% with a hit somewhere; the sample as a whole holds those more often.
# unit: % | format: bare number

Compound: CCCCCCCCCCCCNCC#N
Unit abbrev: %
growth inhibition: 29
//
Compound: CC(NNC(=S)N1CCCC1)c1ccc2ccccc2n1 (stereo unspecified)
Unit abbrev: %
growth inhibition: 98
//
Compound: COc1ccc(/C(=N/NC(N)=O)C(c2ccc(OC)cc2)C2C(=O)Oc3ccccc32)cc1 (stereo unspecified)
Unit abbrev: %
growth inhibition: 95
//
Compound: CN(C)C(=O)c1cc(Br)cc(-c2ccccc2)c1O
Unit abbrev: %
growth inhibition: 92
//
Compound: C/C(=N/NC(N)=S)C(C)C
Unit abbrev: %
growth inhibition: -2

Fill blank: measured growth inhibition of the compound `CCOC(=O)c1csc(=S)[nH]1` is ____.
96

Now the compound `O=C(CC(=O)c1ccccc1)CC(O)(c1ccccc1)c1ccccc1`
88

Now the compound `O=C(/C=C\C(=O)Nc1cccc(N(Cc2ccccc2)Cc2ccccc2)c1)Nc1cccc(N(Cc2ccccc2)Cc2ccccc2)c1`
3

Now the compound `Oc1ccc(COCCBr)c2cccnc12`
99

Now the compound `Cc1cc(NCCCCCCCCNc2cc(C)nc3cc(N(C)C)ccc23)c2ccc(N(C)C)cc2n1`
96
